target: T1, rhesus c-Met on 4MBr-5 cells (rhesus, UniProt F7H1K4 25-1381, Natural c-Met is cleaved at the furin site (KRKKR/S) into disulphide-linked alpha and beta subunits; given here as one mature polypeptide.); assay: flow cytometry, 4MBr-5 cells pre-incubated with 50 ng/mL HGF
T1 construct: also called rhesus c-Met antigen
T1 sequence (F7H1K4 entry or part of it limits assumed): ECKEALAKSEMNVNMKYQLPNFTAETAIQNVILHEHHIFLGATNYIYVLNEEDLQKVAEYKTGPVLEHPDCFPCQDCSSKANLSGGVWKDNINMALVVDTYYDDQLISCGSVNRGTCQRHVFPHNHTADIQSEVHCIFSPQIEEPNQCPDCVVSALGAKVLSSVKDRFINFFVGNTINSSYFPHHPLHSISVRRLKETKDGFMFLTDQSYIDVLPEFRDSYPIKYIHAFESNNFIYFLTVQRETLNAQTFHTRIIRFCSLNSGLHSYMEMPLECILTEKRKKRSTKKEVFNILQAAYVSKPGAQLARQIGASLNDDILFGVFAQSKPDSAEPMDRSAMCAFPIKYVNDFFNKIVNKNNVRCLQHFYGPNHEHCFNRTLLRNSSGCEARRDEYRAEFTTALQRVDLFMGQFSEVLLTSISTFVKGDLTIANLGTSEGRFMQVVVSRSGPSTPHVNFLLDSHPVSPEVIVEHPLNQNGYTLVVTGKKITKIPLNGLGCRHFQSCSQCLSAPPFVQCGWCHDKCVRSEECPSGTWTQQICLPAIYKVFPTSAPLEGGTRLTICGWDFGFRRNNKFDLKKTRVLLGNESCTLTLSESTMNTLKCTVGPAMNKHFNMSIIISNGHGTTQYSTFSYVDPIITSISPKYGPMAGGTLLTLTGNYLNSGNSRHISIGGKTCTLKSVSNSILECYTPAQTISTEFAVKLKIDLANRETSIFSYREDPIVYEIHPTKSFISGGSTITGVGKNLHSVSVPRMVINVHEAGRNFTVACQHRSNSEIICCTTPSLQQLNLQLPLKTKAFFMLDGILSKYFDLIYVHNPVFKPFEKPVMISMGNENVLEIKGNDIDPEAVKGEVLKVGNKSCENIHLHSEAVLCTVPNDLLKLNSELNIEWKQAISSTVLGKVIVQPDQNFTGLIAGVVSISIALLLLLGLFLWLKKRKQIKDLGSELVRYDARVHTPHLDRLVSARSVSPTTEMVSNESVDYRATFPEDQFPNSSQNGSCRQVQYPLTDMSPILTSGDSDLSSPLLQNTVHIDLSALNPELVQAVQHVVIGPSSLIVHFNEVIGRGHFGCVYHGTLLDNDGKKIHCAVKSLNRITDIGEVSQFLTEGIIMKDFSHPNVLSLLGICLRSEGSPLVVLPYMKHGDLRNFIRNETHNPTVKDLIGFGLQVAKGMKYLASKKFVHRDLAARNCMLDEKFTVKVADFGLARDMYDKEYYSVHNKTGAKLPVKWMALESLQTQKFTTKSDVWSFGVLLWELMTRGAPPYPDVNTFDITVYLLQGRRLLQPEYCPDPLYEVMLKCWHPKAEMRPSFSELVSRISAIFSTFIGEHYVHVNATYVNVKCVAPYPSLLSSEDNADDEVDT
Give measured EC50 for each item. Keep answers brief.
Numbers only, in µg/mL.

Examples with answers:
INSERT INTO assay_data (binder, endpoint_result) VALUES
  ('mAb2c (antibody, human IgG1, kappa, V domains shown, Humanized IgG1 kappa, HC-41C, from wt/41C-chi-mAb2; also called humanized HC-41C antibody mAb2c) VH: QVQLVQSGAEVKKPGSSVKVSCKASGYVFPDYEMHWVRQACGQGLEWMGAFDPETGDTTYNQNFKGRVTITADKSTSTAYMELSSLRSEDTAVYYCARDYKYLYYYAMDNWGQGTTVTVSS VL: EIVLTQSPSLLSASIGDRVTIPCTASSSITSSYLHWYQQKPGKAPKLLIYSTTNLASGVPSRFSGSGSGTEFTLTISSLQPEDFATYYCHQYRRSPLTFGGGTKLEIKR', 0.09),
  ('mAb2b (antibody, human IgG1, kappa, V domains shown, Humanized IgG1 kappa, HC-41C, from wt/41C-chi-mAb2; also called humanized HC-41C antibody mAb2b) VH: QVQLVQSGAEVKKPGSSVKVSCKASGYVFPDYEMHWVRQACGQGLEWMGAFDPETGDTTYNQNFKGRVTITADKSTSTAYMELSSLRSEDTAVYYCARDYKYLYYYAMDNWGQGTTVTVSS VL: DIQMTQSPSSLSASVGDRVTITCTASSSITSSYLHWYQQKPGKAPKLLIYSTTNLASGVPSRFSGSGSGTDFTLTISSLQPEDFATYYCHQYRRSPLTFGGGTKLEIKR', 0.15);

Problem: # lookup: EC50 of mAb3e (antibody, human IgG1, kappa, V domains shown, Humanized IgG1 kappa, HC-41C, from wt/41C-chi-mAb3; also called humanized HC-41C antibody mAb3e) VH: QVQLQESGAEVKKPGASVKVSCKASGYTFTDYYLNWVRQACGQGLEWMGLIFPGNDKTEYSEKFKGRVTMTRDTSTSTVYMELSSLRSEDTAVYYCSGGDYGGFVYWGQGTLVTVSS VL: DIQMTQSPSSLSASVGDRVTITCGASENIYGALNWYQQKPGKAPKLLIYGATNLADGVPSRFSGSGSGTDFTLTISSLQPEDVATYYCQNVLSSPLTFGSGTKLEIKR
Solution: 0.04
